Test: E. coli DRC41 culture turbidity changes, primary screen, E. coli filamentation inducer project, strain DRC41, OD650, 48 h (AID 1152);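 further: E. coli MC1000 strain DRC41 lacking acrAB efflux pump and sulA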
Details: E. coli DRC41 (acrAB sulA), higher = more signal, called active from +8 up or from −8 down

compound | z-score
CO[C@@H]1COC(=O)CC=C[C@@H](C)[C@H](OC)COC(=O)[C@@H](C)COC(=O)CC=C[C@H]1C | 0.604
CCOC(=O)C1=NO[C@@]2(C=C(Br)C3(OCCCO3)[C@H]3O[C@H]32)C1 | 0.721
CCOC(=O)[C@H](Cc1ccccc1)NC(=O)CCC1CC(OC(=O)NCCc2ccc(F)cc2)CC2(CCCC(COC(=O)NCC3CCCCC3)O2)O1 (some centres not stated) | 1.08
C#CCCCON=C1C[C@@H](O)[C@@H](O)[C@@H]2[C@@H]3C(=O)N(Cc4ccccc4)C(=O)[C@@H]3CC[C@@H]12 | 0.292
O=C1CCCC(C2=CCCCC2=O)C1 (configuration not stated) | -0.316
CCCNC(=O)OC[C@H]1O[C@H](CCON=C(C)CCC(=O)OC[C@H]2O[C@H](c3ccccc3)C=C[C@@H]2Oc2ccc(OC)cc2)C=C[C@@H]1Oc1ccc(OC)cc1 | 0.3
COC(=O)CC=C[C@@H](C)[C@@H](C=NO[C@@H]1O[C@H](COC(C)=O)[C@@H](OC(C)=O)[C@H](OC(C)=O)[C@H]1OC(C)=O)NS(=O)(=O)c1ccc(C)cc1 | -0.673
